Entries annotated with measured MIC
- Test system: SAUR 9218
- Procedure summary: MIC Test Method, standard agar dilution
- Type: cell-based
- Assay context: agar dilution, Mueller Hinton agar, incubated overnight at 35° C.; lowest concentration that inhibits visible growth; read-out: SAUR 9218 MIC
Give the number first and the unit second.

Here is how some compounds turned out for MIC.
>>> print(df.to_string())
                              line_notation  tested_on  reported_endpoint         val
0  O=C(Nc1ccc(Br)cc1C(=O)O)c1csc(S(=O)(=O)NC2CCN(Cc3ccccc3)CC2)c1  SAUR 9218                MIC    64 µg/mL
1  COc1ccccc1-c1cnc(C(=O)Nc2ccc(Br)cc2C(=O)O)o1  SAUR 9218                MIC     2 µg/mL
2  Cn1nc(C(=O)Nc2ccc(Br)cc2C(=O)O)cc1OCc1ccccc1  SAUR 9218                MIC    16 µg/mL
3  COCCOCCOCC(=O)Nc1cccc2cc(C(=O)Nc3ccc(C#N)cc3C(=O)O)[nH]c12  SAUR 9218                MIC     4 µg/mL
4  N#Cc1ccc(NC(=O)c2noc3ccc(S(=O)(=O)N4CCCC4)cc23)c(C(=O)O)c1  SAUR 9218                MIC  0.06 µg/mL
5  N#Cc1ccc(NC(=O)c2cc3cccc(NC(=O)c4ccc(F)cc4F)c3[nH]2)c(C(=O)O)c1  SAUR 9218                MIC     1 µg/mL
6  CCOC(=O)CCSc1ccc(C(=O)Nc2ccc(C#N)cc2C(=O)O)cn1  SAUR 9218                MIC     1 µg/mL
7  O=C(Nc1ccc(Br)cc1C(=O)O)c1csc(S(=O)(=O)N2CCc3ccccc32)c1  SAUR 9218                MIC     2 µg/mL

QUERY: Find the measured MIC of O=C(Nc1ccc(-c2ccccc2C(F)(F)F)cc1C(=O)O)c1cc(-c2ccccc2F)on1 with SAUR 9218 as test system.
RESULT: 8 µg/mL

----------
- System: SAUR 9218
- Procedure summary: MIC Test Method, standard agar dilution
- Assay type: cell-based
- Assay context: agar dilution, Mueller Hinton agar, incubated overnight at 35° C.; lowest concentration that inhibits visible growth; read-out: SAUR 9218 MIC
- Experimental: The in vitro MiCs of test compounds were determined by a standard agar dilution method. A stock drug solution of each analog was prepared in the preferred solvent, usually DMSO:H2O (1:3). Serial 2-fold dilutions of each sample are made using 1.0 ml aliquots of sterile distil]ed water. […] Following incubation the Minimum Inhibitory Concentration (MIC μg/ml), the lowest concentration of drug that inhibits visible growth of the organism, was read and recorded.
Rule for this label: MET means MIC is less than 1 µg/mL; NOT MET means MIC is at least 1 µg/mL.

Use these answered entries as a reference point.
>>> print(df.to_string())
                                   compound  category
0  O=C(Nc1ccc(Br)cc1C(=O)O)c1c[nH]c(SCc2ccccc2)n1   NOT MET
1  CCCC(=O)Nc1cccc2cc(C(=O)Nc3ccc(C#N)cc3C(=O)O)[nH]c12   NOT MET
2       Cc1cc(C(=O)Nc2ccc(C#N)cc2C(=O)O)no1   NOT MET

QUERY: Given the entry O=C(Nc1ccc(Br)cc1C(=O)O)c1cc(Cl)nc(Cl)c1 , would its reported MIC be below 1 µg/mL?
RESULT: NOT MET

QUERY: Given the entry CCCCCSc1ccc(C(=O)Nc2ccc(Br)cc2C(=O)O)nn1 , would its reported MIC be below 1 µg/mL?
RESULT: MET

QUERY: Given the entry Cc1oc(C(=O)Nc2ccc(C#N)cc2C(=O)O)cc1S(=O)(=O)N1CCCC1CO (centres unmarked) , would its reported MIC be below 1 µg/mL?
RESULT: NOT MET

QUERY: Given the entry Cn1c(C(=O)Nc2cccc3cc(C(=O)Nc4ccc(C#N)cc4C(=O)O)[nH]c23)cc2ccccc21 , would its reported MIC be below 1 µg/mL?
RESULT: MET

QUERY: Given the entry N#Cc1ccc(NC(=O)c2cc(-c3ccccc3Oc3ccccc3-c3ccccc3)on2)c(C(=O)O)c1 , would its reported MIC be below 1 µg/mL?
RESULT: NOT MET
